Assay: Effective permeability of compound at pH 7.4 at 200 uM after 5 hrs by PAMPA
Assay type: ADME
Conditions: PAMPA, pH 7.4; read-out: Peff
Exercise: for every item that follows, state its recorded Papp at 5 h, 200 µM.
Numbers only, in ×10⁻⁶ cm/s.

Look up Papp at 5 h, 200 µM for the entries below, preserving their order.
1. O=P(O)(O)CCc1ccccc1
2. CC(=O)NOCCc1ccccc1
3. CC1=C(O)CC(Cc2ccccc2)C1=O (centres undefined)
4. O=C1CC(=O)C(Cc2ccccc2)N1 (centres undefined)

Marked response:
1: 0.094; 2: 4.6; 3: 0.26; 4: 2.5

----------
Settings: octanol/water, pH 7.4, 1 h
Please use rule met for logD under 0.7 and rule not met for everything else, ties included.

CC(=O)N(O)CCc1ccccc1: rule not met
O=c1c(O)c(Cc2ccccc2)c1=O: rule met
CC(=O)NC(=O)NCc1ccccc1: rule not met
O=C1CCC(O)=C1Cc1ccccc1: rule met
CS(=O)(=O)NC(=O)NCc1ccccc1: rule met

Exam item: hey, is logD for `NS(=O)(=O)CCc1ccccc1` lower than 0.7 or not?
Marked response: rule not met

----------
Experiment: Effective permeability of compound assessed as membrane retention at pH 7.4 at 200 uM after 5 hrs by PAMPA relative to control
Assay type: ADME
Settings: pH 7.4, 5 h
experimentalEndpoint: R% (%)
Numbers only, in %.

// below: answered compounds
[O-][S+](Cc1ccccc1)c1ccccc1O (stereo not given): 1.1
NS(=O)(=O)CCc1ccccc1: 4.2
O=c1c(O)c(Cc2ccccc2)c1=O: -13
CS(=O)(=O)NC(=O)CCc1ccccc1: 1.4
O=C1NC(=O)C(Cc2ccccc2)S1 (stereo not given): 5.5
O=S(=O)([O-])CCc1ccccc1.[Na+]: -6.1

Look up R% for the entries below, preserving their order.
1. CC(=O)NOCCc1ccccc1
2. O=C1NC(=O)C(Cc2ccccc2)O1 (stereo not given)
3. CC1=C(O)CC(Cc2ccccc2)C1=O (stereo not given)
4. CS(=O)(=O)NC(=O)NCc1ccccc1

Marked response:
1. -2.9
2. -0.6
3. -5.1
4. 3

----------
Test: Effective permeability of compound assessed as membrane retention at pH 7.4 at 200 uM after 5 hrs by PAMPA relative to control
Type: ADME
Conditions: pH 7.4, 5 h
experimentalEndpoint: R% (%)
Numbers only, in %.

Oc1cc(Cc2ccccc2)on1: -11
O=C1CCC(O)=C1Cc1ccccc1: -8.8
O=C1CC(c2ccccc2)C=C1O (stereo not given): -8.6
CC(=O)N(O)CCc1ccccc1: 1.1
O=c1[nH]c(CCc2ccccc2)ns1: -0.7
c1ccc(CCc2nnn[nH]2)cc1: 4.7
CN(C)S(=O)(=O)NC(=O)CCc1ccccc1: 2.2
Oc1c(F)cc(Cc2ccccc2)cc1F: 49
CONC(=O)CCc1ccccc1: 5.3
S=c1[nH]c(CCc2ccccc2)no1: -3.4

Look up R% for the entries below, preserving their order.
1. O=C1CC(=O)C(Cc2ccccc2)N1 (stereo not given)
2. O=C1CCC(Cc2ccccc2)=C1O
3. O=S([O-])CCc1ccccc1.[Na+]
4. O=c1c(O)c(NCc2ccccc2)c1=O
5. Oc1c(F)ccc(Cc2ccccc2)c1F

Marked response:
1. 1.3
2. 1.5
3. -6.8
4. -6.6
5. -32
